System: KM12
method: NCI tumour cell line growth inhibition, 48 h
Active and inactive are the calls of the source. Rule as the data show it: active = GI50 up to about 1.1 µM and inactive = higher.
assay_endpoint: GI50

These recorded examples may help you get a feel for the data.
COc1nc2nccc-2c2occn12 : > 100 µM (inactive)
CCOC(=O)C(CO)c1nc2c([nH]c1=O)c(=O)n(C)c(=O)n2C (stereo unspecified) : > 100 µM (inactive)
COc1cc(/C=C2\CC3C4CC[C@H]5C[C@@H](O)CC[C@]5(C)C4CC[C@]3(C)\C2=N\O)cc(OC)c1OC (stereo partly specified) : 6.9 µM (inactive)
CC(=O)OI1NC(=O)c2ccccc21 : > 100 µM (inactive)
COc1cc(NCC(C#N)C#N)ccc1/N=N/c1ccc([N+](=O)[O-])cc1 : > 100 µM (inactive)

For the compound shown here, `CN(C)CC/C(=N\Nc1c(F)c(F)c(F)c(F)c1F)c1ccccc1` , give the reported GI50.
48.5 µM (inactive)

###

Tested on: RXF 393
method: NCI tumour cell line growth inhibition, 48 h
Activity calls are given as the source filed them. Rule as the data show it: active = GI50 up to about 1.1 µM and inactive = higher.
Your answer must be one of the following: active, inactive

Cc1nn(-c2ccccn2)c2c1C(SC#N)=C(C=O)CC2 : inactive
O=S1(=O)CS(=O)(=O)OCCCCCO1 : inactive
COc1cc(NCC(C#N)C#N)ccc1/N=N/c1ccc([N+](=O)[O-])cc1 : inactive
CC(C)C(C/C=C1\CC(CO)(COC(=O)C2CCCCC2)OC1=O)C(C)C (stereo not given) : inactive
CC(C)(C)OC(=O)N1CCc2c(n(C/C=C/c3ccccc3)[nH]c2=O)C1 : inactive
COC(=O)/C(C#N)=C(\N)C(Cl)(Cl)Cl : inactive
Cc1cn(C2CC(O)C(CO[Si](C)(C)C(C)(C)C)OC2OC(C)C)c(=O)[nH]c1=O (stereo not given) : inactive
CCOC(=O)NC(Nc1ccc([N+](=O)[O-])cc1)(C(F)(F)F)C(F)(F)F : inactive

What was the test verdict on `COc1nc2nccc-2c2occn12` ?
inactive

Consider next the molecule CC(C)C(C/C=C1/CC(CO)(COC(=O)C2CCCCC2)OC1=O)C(C)C (stereo not given) in the same way.
inactive

# repeat for `COc1ccc(Cc2ccccc2C(=O)O)c2ccccc12`
inactive

Also, `CCOC(=O)Nc1cc2c(c(N)n1)N=C(c1ccccc1)CN2` please.
active

Do the same for C=C1C(=O)O[C@@H]2C[C@@]3(C)CCC[C@H](C)C3=C[C@H]12 [HELENINE] please
inactive

Now try `C=CCN1C(=O)CS/C1=N\NC(=O)CSc1nc2ccccc2c(=O)n1CC` .
inactive

###

Test system: MDA-MB-435
method: NCI tumour cell line growth inhibition, 48 h
Calls of active or inactive are those of the source. No stated cut-off is given here; in the data, active = GI50 up to about 1.1 µM and inactive = higher.
Thanks in advance; please answer with one of these: 1.0 for active, 0.0 for inactive

Example cases with answers are listed next.
O=C1C=CC(=O)c2c1cc([N+](=O)[O-])c1ccoc21 : 0.0
CCOc1ccc2nc(NC(NC(=O)c3cccnc3)(C(F)(F)F)C(F)(F)F)sc2c1 : 0.0
CCOC(=O)Cn1nc2ccc(Nc3nc4ccccc4nc3C(=O)OCC)cc2n1 : 0.0
O=C(NC1(c2cc3ccccc3s2)CCCCC1)C1CCC1 : 0.0
O=C1CCC(c2ccccc2)(c2ccccc2)CC1 : 0.0
COC(=O)/C=C/c1ccc2nncnc2c1.COC(=O)/C=C\c1ccc2nncnc2c1 : 0.0
Cc1cn([C@@H]2C[C@@H]2CO)c(=O)[nH]c1=O : 0.0
O=C1OC(C2Cc3ccc4c(c3C2=O)CCCC4)c2ccccc21 (stereo not drawn) : 0.0
Cc1nc2c(cc1C(=O)N/N=C/c1ccc([N+](=O)[O-])cc1)c(=O)n(C)c(=O)n2C : 0.0
Cn1c2c(c3c(=O)[nH]ncc31)CCc1ccccc1-2 : 0.0

Give the logged outcome of this assay for the following compound: CC1CC(N2CCOCC2)=Nc2ccccc2N1C (stereo not drawn)
0.0

Please give the result for O=c1c2ncn(C3CC(O)C(CO)O3)c2nnn1Cc1ccccc1[N+](=O)[O-] (stereo not drawn) too.
0.0

Same read-out for `COC(=O)Nc1nc2cc(NC(=O)c3ccc(I)cc3)ccc2[nH]1` ?
0.0

Can you handle CC(=O)OC1[C@@H](OC(C)=O)CN(OCc2ccccc2)C[C@H]1OC(C)=O (stereo partly drawn) next?
0.0

Again, but for `CC1=[N+]([O-])C2(CCCC2)N(O)C1(C)C`
0.0

// repeat for `COc1cc2c(/C=C3/C(=O)Nc4ccc(O)cc43)c(Cl)[nH]c2cc1C` and report
1.0
